Test system: T-47D breast
assay-info: NCI tumour cell line growth inhibition, 48 h; in the data active means GI50 below about 0.43 µM; inactive means the rest
I would appreciate it if you answered using one of these outcomes: active, inactive

INSERT INTO assay_data (compound, category) VALUES
  ('CCCn1cnc2c(SCc3ccccc3)nc(N)nc21', 'inactive'),
  ('C[C@@H]1C/C=C\C(=O)O[C@H](/C=C/C#C/C=C/C(C)(C)[C@@H](O)c2cccc(O)c2Br)[C@@H](C)/C=C/[C@H](C)C[C@H](OC(N)=O)C1', 'active'),
  ('Cc1cc(=O)oc2cc(OCCn3c(C)nn(-c4ccc(Cl)cc4)c3=O)ccc12', 'inactive'),
  ('Fc1cc(-c2nnc3n2N=C(c2ccc(Cl)cc2Cl)CS3)c(Cl)cc1Cl', 'inactive'),
  ('COc1ccc2cc(-c3c(-c4ccncc4)nc(-c4ccc(S(C)=O)cc4C)n3C)ccc2c1 (centres undefined)', 'inactive'),
  ('Fc1c[c-]c(-c2ccccn2)c(F)c1.[CH3-].[Pt+2].c1ccc(P(C[PH+](c2ccccc2)c2ccccc2)c2ccccc2)cc1', 'inactive'),
  ('O=c1oc2ccc(F)cc2c(=O)n1-c1ccc(Br)cc1F', 'inactive'),
  ('O=C(Nc1ccc(Cl)cc1)Nc1ccccc1CNc1nc(Nc2ccc(OCCN3CCCC3)cc2)ncc1Cl', 'inactive');

[in] Could you kindly confirm the outcome this assay logged for COc1ccc(-c2cc(/C=C/C(=O)c3cc(OC)c(OC)c(OC)c3)[nH]n2)cc1OC ?
[out] inactive
